# Test system: CD8+ T cells of healthy HLA-A*02 donors
# Assay Info: In vitro immunogenicity: T-cell priming with aAPCs loaded with peptide/MHC and anti-CD28, pMHC multimer readout
# Type: cell-based, human
# Experimental Conditions: in vitro immunogenicity, HLA-A*02 restricted peptides; percentage of positive wells among evaluable
Measured Quantity: Wells positive [%]

Answered examples (5):
{"Substance": "14 (YTFSGDVQL; listed as Homo sapiens) [compound 14]", "Subject Of Test": "CD8+ T cells of healthy HLA-A*02 donors", "Wells positive [%]": "+ (<20% = +)"}
{"Substance": "157 (ILQDGQFLV; listed as Homo sapiens) [compound 157]", "Subject Of Test": "CD8+ T cells of healthy HLA-A*02 donors", "Wells positive [%]": "+ (<20% = +)"}
{"Substance": "7 (ALLQALMEL; listed as Homo sapiens) [compound 7]", "Subject Of Test": "CD8+ T cells of healthy HLA-A*02 donors", "Wells positive [%]": "++ (20%-49% = ++)"}
{"Substance": "35 (VIIKGLEEI; listed as Homo sapiens) [compound 35]", "Subject Of Test": "CD8+ T cells of healthy HLA-A*02 donors", "Wells positive [%]": "+ (<20% = +)"}
{"Substance": "102 (GLYPVTLVGV; listed as Homo sapiens) [compound 102]", "Subject Of Test": "CD8+ T cells of healthy HLA-A*02 donors", "Wells positive [%]": "+ (<20% = +)"}

Q: Give its Wells positive [%] value. Item: 50 (ILLSVLHQL; listed as Homo sapiens) [compound 50]
Ans: + (<20% = +)

====

# Subject Of Test: HLA-A*02:01 (Homo sapiens, UniProt P04439, D140Y/D185E/D98H/E176V/E277Q/G131W/G231S/I119V/I121R/I166T/I218V/L300P/L318F/N151K/N90K/P208A/P217A/Q86G/Q94H/R138H/R169H/T345S)
# Construct: made in house
# Assay Info: MHC binding assay: UV-ligand exchange with β2m ELISA (peptide exchange yield)
# Experimental Conditions: binding to HLA-A*02:01 evaluated by peptide exchange yield (UV-ligand exchange, β2m ELISA)
# Description: Candidate peptides for T cell based therapies according to the present invention were further tested for their MHC binding capacity (affinity). The individual peptide-MHC complexes were produced by UV-ligand exchange, where a UV-sensitive peptide is cleaved upon UV-irradiation, and exchanged with the peptide of interest as analyzed. Only peptide candidates that can effectively bind and stabilize the peptide-receptive MHC molecules prevent dissociation of the MHC complexes. […]
Measured Quantity: Peptide exchange

{"Substance": "98 (FVQEKIPEL; listed as Homo sapiens) [compound 98]", "Measured Quantity": "Peptide exchange", "Result": "+++ (≧50 = +++)"}
{"Substance": "143 (MLWESIMRV; listed as Homo sapiens) [compound 143]", "Measured Quantity": "Peptide exchange", "Result": "+++ (≧50 = +++)"}
{"Substance": "113 (FLFLKEVKV; listed as Homo sapiens) [compound 113]", "Measured Quantity": "Peptide exchange", "Result": "++ (≧20% = ++)"}
{"Substance": "69 (LKVLKADVVL; listed as Homo sapiens) [compound 69]", "Measured Quantity": "Peptide exchange", "Result": "++ (≧20% = ++)"}
{"Substance": "151 (DISKRIQSL; listed as Homo sapiens) [compound 151]", "Measured Quantity": "Peptide exchange", "Result": "++ (≧20% = ++)"}
{"Substance": "19 (KVFELDLVTL; listed as Homo sapiens) [compound 19]", "Measured Quantity": "Peptide exchange", "Result": "++ (≧20% = ++)"}
{"Substance": "144 (FLISQTPLL; listed as Homo sapiens) [compound 144]", "Measured Quantity": "Peptide exchange", "Result": "+++ (≧50 = +++)"}
{"Substance": "279 (VLMDEGAVLTL; listed as Homo sapiens) [compound 279]", "Measured Quantity": "Peptide exchange", "Result": "++ (≧20% = ++)"}

Lab note: next substance to report on.
Q: # Peptide exchange lookup, item 117 (TLLEGISRA; listed as Homo sapiens) [compound 117]
Ans: ++ (≧20% = ++)
